What follows is a record of pKi for nociceptin receptor (Homo sapiens).
Structures can show the parent of a compound that is named as a salt.
pKi here is simply -log10 of the concentration when that concentration is written in mol/L.

>>> value("COc1ccc2nc(NC(=O)c3ccc(Cl)cc3)nc(N[C@H]3CCCC[C@H]3NC(=N)N)c2c1 (relative stereo) [Example 2, Dihydrochloride]")
8.22
>>> value("COc1ccc2nc(C=Cc3ccccn3)nc(N[C@H]3CC[C@@H](CNC(=N)N)C[C@H]3C)c2c1 (relative stereo) [Example 68, Trihydrochloride]")
8.52
>>> value("COc1ccc2nc(C=Cc3ccc(Cl)cc3)nc(NCCCCCCNC(=N)N)c2c1 [Example 16, Dihydrochloride]")
8.05
>>> value("COc1ccc2nc(C=Cc3ccccn3)nc(NCCN(CCc3ccccc3)C(=N)N)c2c1 [Example 66, Trihydrochloride]")
8.40

Q. May I ask what pKi has been recorded for Cc1ccc2nc(C=Cc3ccccn3)nc(NCCCCCCNC(=N)N)c2c1.Cl.Cl.Cl [Example 46, Trihydrochloride] ?
A. 8.52

Q. May I ask what pKi has been recorded for COc1ccc2nc(C=Cc3ccccn3)nc(NC[C@H]3CC[C@@H](CNC(=N)N)CC3)c2c1 [Example 44, Trihydrochloride] ?
A. 8.15

Q. May I ask what pKi has been recorded for COc1ccc2nc(C=Cc3ccccn3)nc(NCCCCCCNC(=N)N)c2c1.Cl.Cl [Example 23, Dihydrochloride] ?
A. 8.52

====

target: μ-receptor (Homo sapiens); construct: purchased Receptor Biology; assay: μ-Receptor binding assay ([3H]diprenorphine, cell membrane preparation); conditions: [3H]diprenorphine 0.13 nM, 25° C., 90 minutes; Ki calculated from IC50 and Kd; read-out: Affinity for μ-receptor Ki
Sequence (P35372 whole entry): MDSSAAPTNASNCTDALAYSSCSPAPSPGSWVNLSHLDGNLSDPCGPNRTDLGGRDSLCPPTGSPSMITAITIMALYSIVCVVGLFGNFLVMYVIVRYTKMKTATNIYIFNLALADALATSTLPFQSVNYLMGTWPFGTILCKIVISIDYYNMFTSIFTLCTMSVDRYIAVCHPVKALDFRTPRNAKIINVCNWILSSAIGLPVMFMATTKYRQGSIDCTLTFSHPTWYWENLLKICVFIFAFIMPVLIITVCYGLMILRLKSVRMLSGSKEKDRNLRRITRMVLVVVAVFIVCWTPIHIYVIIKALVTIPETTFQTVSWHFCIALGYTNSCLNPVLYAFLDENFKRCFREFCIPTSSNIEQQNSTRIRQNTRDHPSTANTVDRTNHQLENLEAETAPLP
Structures can show the parent of a compound that is named as a salt.
Experimental Endpoint: Ki (µM)
Give just the number in µM; leave the unit off.

Some solved entries appear below for comparison.
>>> value("COc1ccc2nc(C=Cc3ccccn3)nc(NCCCCCCNC(=N)N)c2c1.Cl.Cl [Example 23, Dihydrochloride]")
0.019
>>> value("COc1ccc2nc(C=Cc3ccc(Cl)cc3)nc(NCCCCCCNC(=N)N)c2c1 [Example 16, Dihydrochloride]")
0.038
>>> value("Cc1ccc2nc(C=Cc3ccccn3)nc(NCCCCCCNC(=N)N)c2c1.Cl.Cl.Cl [Example 46, Trihydrochloride]")
0.023

Would you kindly look at the next entry?
Q. Which measured Ki belongs to COc1ccc2nc(C=Cc3ccccn3)nc(NC[C@H]3CC[C@@H](CNC(=N)N)CC3)c2c1 [Example 44, Trihydrochloride] , tested on μ-receptor (Homo sapiens)?
A. 0.03

====

What follows is a record of Ki for μ-receptor (Homo sapiens).
Where a name gives a salt, the structure may show the parent alone.
Give just the number in nM; leave the unit off.

>>> value("COc1ccc2nc(NC(=O)c3ccc(Cl)cc3)nc(N[C@H]3CCCC[C@H]3NC(=N)N)c2c1 (relative stereo) [Example 2, Dihydrochloride]")
193
>>> value("COc1ccc2nc(C=Cc3ccccn3)nc(N[C@H]3CC[C@@H](CNC(=N)N)C[C@H]3C)c2c1 (relative stereo) [Example 68, Trihydrochloride]")
32

Would you kindly look at the next entry?
Q. Which measured Ki belongs to COc1ccc2nc(C=Cc3ccccn3)nc(NCCN(CCc3ccccc3)C(=N)N)c2c1 [Example 66, Trihydrochloride] , tested on μ-receptor (Homo sapiens)?
A. 22

Just for reference, patent US6794389B2 is where these values come from.
